Values were extracted from paper PMC9352680.

Entries and their measured pKd follow.
Biological target: T1, PUF4 RNA-binding domain (Saccharomyces cerevisiae, UniProt P25339 537-888)
T1 sequence: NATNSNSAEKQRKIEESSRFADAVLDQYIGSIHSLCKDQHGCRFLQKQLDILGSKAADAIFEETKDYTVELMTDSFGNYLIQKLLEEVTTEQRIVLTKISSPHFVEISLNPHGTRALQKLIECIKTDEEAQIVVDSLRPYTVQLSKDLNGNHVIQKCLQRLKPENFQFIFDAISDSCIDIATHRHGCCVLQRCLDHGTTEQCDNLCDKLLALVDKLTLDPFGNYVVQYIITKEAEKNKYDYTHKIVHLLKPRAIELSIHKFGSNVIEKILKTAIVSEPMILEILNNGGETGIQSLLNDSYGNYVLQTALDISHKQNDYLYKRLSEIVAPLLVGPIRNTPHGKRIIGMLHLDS
Experiment: Mg; RNA-MaP; 20 mM Na-HEPES pH 7.4, 30 mM KOAc, 0.75 mM MgCl2, 0.1% Tween-20, 5% glycerol, 0.1 mg/mL BSA, 2 mM DTT; 25 C; 0.0125-409.6 nM protein
Conditions: tags: N-His6-TEV cleaved; C-SNAP kept, Cy3B-labelled; label: tethered on chip by stalled RNA polymerase
pKd: −log10 of the molar value.

Binder	Relation	pKd
UCUCUUCUUAUAUAUACUUCUCUU (ssRNA) [Id_ii_S1_P3E.3_K3.2_C3.2_H3.2_A3.1_F3.1_T3.2_[T9C]_[A10T]]	=	6.20
Ia_S2_P4E.1_K4.1_C4.1_H4.1_A4.1_F4.1_[A9C]_T4.1 (ssRNA) RNA: UUUGAUUAAUAUGAUAUCGUUCUUUCUUGUAUAUUCUUCUUUCUCGAUAUCAUAUUAAUCUUU	=	8.55
UCUCUUAUUGUAUUAUUAACUCUCUU (ssRNA) [Id_ii_S1_P5E.2_K5.1_C5.2_[C-2A]_H5.1_A5.1_F5.1_T5.2_[T11A]_[A12C]]	=	7.96
Id_ii_S2_P4E.4_K4.3_C4.2_H4.3_A4.1_F4.1_T4.2_[G10A] (ssRNA) RNA: UUUGAUUAAUAUGAUAUCGUUCUUUCUCUACACUAUUAAUUUCUUUCUCGAUAUCAUAUUAAUCUUU	=	6.30
Id_ii_S2_P5E.4_K5.3_C5.2_[T-1G]_H5.3_A5.1_F5.1_T5.2_[A12T] (ssRNA) RNA: UUUGAUUAAUAUGAUAUCGUUCUUUCUCGACACUUAUUAUUUUCUUUCUCGAUAUCAUAUUAAUCUUU	<	5.64
UCUCUUUGUAUUAUUAUUCCUCUCUU (ssRNA) [Ie_S1_P5E.1_K5.1_C5.1_H5.1_A5.1_F5.1_[+10TTCC]_T5.1]	=	8.33
UCUCUUACACACUUAUUAUAUCUCUU (ssRNA) [Id_ii_S1_P5E.4_K5.3_C5.2_[C-2A]_[T-1C]_H5.3_A5.1_F5.1_T5.2]	<	5.64
Ie_S2_P3E.2_K3.1_C3.2_[+-1CCC]_H3.1_A3.1_F3.1_T3.2 (ssRNA) RNA: UUUGAUUAAUAUGAUAUCGUUCUUUCUCUCCCUGUAUAUAUAUUCUUUCUCGAUAUCAUAUUAAUCUUU	=	9.18
UCUCUUUGUAACCCAAUCUCUU (ssRNA) [Ic_S1_P5E.1_K5.1_C5.1_H5.1_A5.1_[T5A]_[T6C]_[A7C]_F5.1_[T8C]_[T9A]_T5.1]	=	5.76
UCUCUUUAUCUAUUAUCUCUU (ssRNA) [Ib_S1_P4E.1_K4.1_C4.1_H4.1_[G2A]_[A4C]_A4.1_F4.1_T4.1]	<	5.64
Ic_S4_P3E.1_K3.1_C3.1_H3.1_A3.1_[A6C]_F3.1_[A8G]_T3.1 (ssRNA) RNA: UUUGACAACUGAUCGUUCUUUCUUGUAUCUGUUCUUUCUCGAUCAGUUGUCUUU	=	7.63
UCUCUUUGUAUUGUCAUCUCUU (ssRNA) [Ib_S1_P5E.1_K5.1_C5.1_H5.1_A5.1_[A7G]_F5.1_[T9C]_T5.1]	=	6.85
Id_ii_S2_P4E.4_K4.3_C4.2_[C-2A]_[T-1A]_H4.3_A4.1_F4.1_T4.2_[G10C]_[T11C] (ssRNA) RNA: UUUGAUUAAUAUGAUAUCGUUCUUUCUAAACACUAUUACCUUCUUUCUCGAUAUCAUAUUAAUCUUU	<	5.64
Ie_S2_P5E.1_K5.1_C5.1_H5.1_A5.1_[+7CCCT]_F5.1_T5.1 (ssRNA) RNA: UUUGAUUAAUAUGAUAUCGUUCUUUCUUGUAUUACCCUUUAUUCUUUCUCGAUAUCAUAUUAAUCUUU	=	7.13
Ic_S2_P3E.1_K3.1_C3.1_H3.1_A3.1_[T5C]_[A6T]_F3.1_[T7G]_[A8G]_T3.1 (ssRNA) RNA: UUUGAUUAAUAUGAUAUCGUUCUUUCUUGUACUGGUUCUUUCUCGAUAUCAUAUUAAUCUUU	=	5.86
UCUCUUUGUAUUAUUAUUCUCUCUU (ssRNA) [Ie_S1_P5E.1_K5.1_C5.1_H5.1_A5.1_F5.1_[+10TTC]_T5.1]	=	8.24
Ib_S4_P5E.1_K5.1_C5.1_H5.1_[A4C]_A5.1_F5.1_[A10C]_T5.1 (ssRNA) RNA: UUUGACAACUGAUCGUUCUUUCUUGUCUUAUUCUUCUUUCUCGAUCAGUUGUCUUU	=	6.31
Ie_S2_P5E.1_K5.1_C5.1_H5.1_[+1TTC]_A5.1_F5.1_T5.1 (ssRNA) RNA: UUUGAUUAAUAUGAUAUCGUUCUUUCUUUUCGUAUUAUUAUUCUUUCUCGAUAUCAUAUUAAUCUUU	=	6.43
UCUCUUUGUACCCUUUUCUCUU (ssRNA) [Ic_S1_P5E.1_K5.1_C5.1_H5.1_A5.1_[T5C]_[T6C]_[A7C]_F5.1_[A10T]_T5.1]	=	7.44
UCUCUUUGUAAAAAUUCUCUU (ssRNA) [Ic_S1_P4E.1_K4.1_C4.1_H4.1_A4.1_[T5A]_[T7A]_F4.1_[T8A]_[A9T]_T4.1]	=	6.43
UCUCUUUGUAUGUUUUCUCUU (ssRNA) [Ic_S1_P4E.1_K4.1_C4.1_H4.1_A4.1_[A6G]_F4.1_[A9T]_T4.1]	=	7.40
ACAAACCUACACUAUACAACAAAC (ssRNA) [Id_ii_S3_P3E.4_K3.3_C3.2_H3.3_A3.1_F3.1_T3.2_[T9C]]	=	5.73
UCUCUUUGUAUUAUACUCUCUU (ssRNA) [Ic_S1_P5E.1_K5.1_C5.1_H5.1_A5.1_F5.1_[T9A]_[A10C]_T5.1]	=	8.61
UCUCUUUGUACGUUUCUCUU (ssRNA) [Ic_S1_P3E.1_K3.1_C3.1_H3.1_A3.1_[T5C]_[A6G]_F3.1_[A8T]_T3.1]	=	7.39
